B1: CPEB3 Ribozyme (parent)
chain: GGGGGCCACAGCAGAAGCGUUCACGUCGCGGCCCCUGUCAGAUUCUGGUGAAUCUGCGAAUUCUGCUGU

Variants of: B1
protocolDetails: self-cleavage, relative activity (ratio to wild type); higher = more cleavage; co-transcriptional
Lab note: compare self-cleavage against 0.3. Equal or greater, write yes (1). Smaller, write no (0).

Known results for variants:
INSERT INTO measurements (sequenceinput, label) VALUES
  ('GGGGGCCACAGCAGAAGCGUUCACGUCGCGGCCCCGGUCCGAUUCUGGUGAAUCUGCGAAUUCUGCUGU [U36G A40C]', 'no (0)'),
  ('GGGGGCCACAACAGAAGCGUUCACGUCGCGGCCCCUGUCAGAUUCUGGUGAAUUUGCGAAUUCUGCUGU [G11A C54U]', 'yes (1)'),
  ('GGGGGCCACAGCAGAAGCGUUCACGUCGCGGCCCCUUUCAGAUUCUGGUGAAGCUGCGAAUUCUGCUGU [G37U U53G]', 'no (0)'),
  ('GGGGGCCCGAGCAGAAGCGUUCACGUCGCGGCCCCUGUCAGAUUCUGGUGAAUCUGCGAAUUCUGCUGU [A8C C9G]', 'yes (1)'),
  ('GGGGGCCACAGCAGAAGCGUUCACGUCGCGGCCCCUGUCAGACUCUGGCGAAUCUGCGAAUUCUGCUGU [U43C U49C]', 'yes (1)'),
  ('GGGGGCGACAGCAGAAGCGUUCACGUCGCGGCCCCUGUCAGAUUCUGUUGAAUCUGCGAAUUCUGCUGU [C7G G48U]', 'yes (1)'),
  ('GGGGGCCACAGCAGAAGCGUUCACGUCGCGGCCCCUGUCAGAUUCUGGUGAUUCUGCGAAUUCUGCUGG [A52U U69G]', 'yes (1)'),
  ('GGGGGCCACAGCAGAACCGUUCACGUCGCGGCCCCUGUCAGAUUCUGGUGAAUCUGCGAUUUCUGCUGU [G17C A60U]', 'no (0)'),
  ('GGGGGCCACAGCAGAAGCGUUCAAGUCGCGGCCCCUGUCAGAUUCUGGUGAAUCUGCGAAUUCUGCUGU [C24A]', 'yes (1)'),
  ('GGGGGCGACAGCAGAAGCGUUCACGUCGCGGCCCCUGUCAGAUUCUGGUGAAUCUGCGAAUUUUGCUGU [C7G C63U]', 'yes (1)');

Exercise: Record GGGGGCCACAGCAGAAGCGUUCACGUCGCGGCCCCUGUCAGAUUCUGGUGUAUCUGCGCAUUCUGCUGU [A51U A59C] ; criterion: self-cleavage no lower than 0.3. Met?
Key: yes (1)

Exercise: Record GGUGGCCACAGCAGAAGCGUUCACGUCGCGGCCCCUGUCAGAUUCUGGUGAAUCUGCGAUUUCUGCUGU [G3U A60U] ; criterion: self-cleavage no lower than 0.3. Met?
Key: no (0)

Exercise: Record GGGGGGCACAGCAGAAGCGUUCACGUCGCGGCCCCUGUCAGAUUCUGGUGAAUCUGCGAAUUCUGCUAU [C6G G68A] ; criterion: self-cleavage no lower than 0.3. Met?
Key: yes (1)

Exercise: Record GGGGGCCACAGCAGAAGCGUUCACGUCGCGGCCCCUGUCAGAUUCUGGUGAUUCCGCGAAUUCUGCUGU [A52U U55C] ; criterion: self-cleavage no lower than 0.3. Met?
Key: yes (1)

Exercise: Record GGGGGCCACUGCAGAAGCGUUCACGUCGCGGCCCCUGUCAGAUUCUCGUGAAUCUGCGAAUUCUGCUGU [A10U G47C] ; criterion: self-cleavage no lower than 0.3. Met?
Key: yes (1)

Exercise: Record GGGGGCCACAGCAGAAGCGUUCACGUCGCGGCCCCUGUCAGAUUCUGGUGAAUCUGAGAAUUCAGCUGU [C57A U64A] ; criterion: self-cleavage no lower than 0.3. Met?
Key: yes (1)

Exercise: Record GGGGGCCACAGGAGAAGCGUUCACGUCGCGGCCCCUGUCAGAUUCUGGUAAAUCUGCGAAUUCUGCUGU [C12G G50A] ; criterion: self-cleavage no lower than 0.3. Met?
Key: yes (1)

Exercise: Record GGGGGCCACAUCAGAAGCGUUGACGUCGCGGCCCCUGUCAGAUUCUGGUGAAUCUGCGAAUUCUGCUGU [G11U C22G] ; criterion: self-cleavage no lower than 0.3. Met?
Key: no (0)

Exercise: Record GGGGGCUACAGCAGAAGCGUUCACGUCUCGGCCCCUGUCAGAUUCUGGUGAAUCUGCGAAUUCUGCUGU [C7U G28U] ; criterion: self-cleavage no lower than 0.3. Met?
Key: no (0)
